Task for the reader: assign each of the following compounds its reported relative viability.
Tested on: NCI-H1650
Experiment: relative viability (nuclei count vs DMSO), 5 days (fraction); higher = more cells survive
Settings: first compound 0.1265 µM
Give a plain numeric answer without units written out.

Given the compound C[C@@H]1CN(CC(=O)Nc2ccc3c(c2)Cc2cccc(-c4cc(=O)cc(N5CCOCC5)o4)c2S3)C[C@H](C)O1 + CC(=O)c1c(C)c2cnc(Nc3ccc(N4CCNCC4)cn3)nc2n(C2CCCC2)c1=O [Palbociclib] (partner 0.5 µM) , what is its reported relative viability?
0.397

relative viability for Clc1ccc(Nc2nnc(Cc3ccncc3)c3ccccc23)cc1 [Vatalanib] + CC(C)C[C@H](NC(=O)[C@H](Cc1ccccc1)NC(=O)c1cnccn1)B(O)O [Bortezomib] (partner 0.002 µM) ?
0.217

// returns reported relative viability for input COc1cc(N2CCC(C(N)=O)CC2)ccc1Nc1nc(N)c(Cl)c(Nc2ccccc2S(=O)(=O)C(C)C)n1 [HG-5-88-01] + C[C@@H](Oc1cc(-c2cnn(C3CCNCC3)c2)cnc1N)c1c(Cl)ccc(F)c1Cl [Crizotinib] (partner 1 µM)
1.01
